Target: Retinoic acid receptor RXR-alpha (Mus musculus)
Sequence (P28700 whole entry): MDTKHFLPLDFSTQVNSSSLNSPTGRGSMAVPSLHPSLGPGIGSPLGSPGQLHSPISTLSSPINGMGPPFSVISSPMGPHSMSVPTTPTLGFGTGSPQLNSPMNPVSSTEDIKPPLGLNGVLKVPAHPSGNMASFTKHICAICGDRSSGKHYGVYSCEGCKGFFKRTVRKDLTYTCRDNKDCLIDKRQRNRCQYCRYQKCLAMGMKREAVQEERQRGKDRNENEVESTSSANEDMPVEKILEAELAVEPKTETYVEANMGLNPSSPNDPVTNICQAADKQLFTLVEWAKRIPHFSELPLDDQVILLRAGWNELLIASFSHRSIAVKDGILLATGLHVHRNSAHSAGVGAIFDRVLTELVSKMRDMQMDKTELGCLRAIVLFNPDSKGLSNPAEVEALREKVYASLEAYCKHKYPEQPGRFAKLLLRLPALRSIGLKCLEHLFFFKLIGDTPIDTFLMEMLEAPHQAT
test readout: IC50

Q) Can you share its IC50? I mean this molecule: `CCC1=C(C(C)C)/C(=C/C(C)=C/C=C/C(C)=C/C(=O)O)CCC1`
A) > 1 µM
